ASSAY SYSTEM: ~100 representative kinases (Homo sapiens)
Construct: Recombinant protein kinase domains with a concentration of 2 μM
EXPERIMENT SUMMARY: DSF 100 kinase selectivity screen;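 also: compound tested at 20 µM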
Format: binding
ASSAY CONTEXT: Protein CDK2; average of three replicates
MEASUREMENT NAME: dTm (K)

Solved entries (count: 4):
Data request, read-out dTm, for O=C(Nc1ccc(Cl)cc1)C1(C(=O)Nc2cccc(-c3c[nH]c4ncnc(N5CCOCC5)c34)c2)CC1 8.33

Data request, read-out dTm, for CNC(=O)c1cc(Oc2ccc(NC(=O)Nc3cc(C(C)(C)C)nn3-c3ccc4ncccc4c3)c(F)c2)ccn1 [Rebastinib, reference compound] 9.06

Data request, read-out dTm, for COc1cc(NC(=O)C2(C(=O)Nc3cccc(-c4c[nH]c5ncnc(N6CCOCC6)c45)c3)CC2)ccc1F 4.67

Data request, read-out dTm, for O=C(Nc1cccc(-c2c[nH]c3ncnc(N4CCOCC4)c23)c1)C1(C(=O)Nc2cccc3c2CCC3)CC1 4.66

a. O=C(Nc1cccc(-c2c[nH]c3ncnc(N4CCOCC4)c23)c1)C1(C(=O)Nc2ccc(F)c(Br)c2F)CC1
b. CC(=O)N1CCN(c2nc(Cl)nc3[nH]cc(-c4cccc(NC(=O)Nc5cc(C(C)(C)C)nn5-c5ccc(C)cc5)c4)c23)CC1
Which of the two items, a and b , has the greater recorded dTm? Mark your selection by writing its label. a
(a: 3.97 K, b: 2.43 K)

###

ASSAY SYSTEM: ~100 representative kinases (Homo sapiens, UniProt P48730)
Construct: Recombinant protein kinase domains with a concentration of 2 μM
Sequence (P48730 whole entry, the tested form may be a part): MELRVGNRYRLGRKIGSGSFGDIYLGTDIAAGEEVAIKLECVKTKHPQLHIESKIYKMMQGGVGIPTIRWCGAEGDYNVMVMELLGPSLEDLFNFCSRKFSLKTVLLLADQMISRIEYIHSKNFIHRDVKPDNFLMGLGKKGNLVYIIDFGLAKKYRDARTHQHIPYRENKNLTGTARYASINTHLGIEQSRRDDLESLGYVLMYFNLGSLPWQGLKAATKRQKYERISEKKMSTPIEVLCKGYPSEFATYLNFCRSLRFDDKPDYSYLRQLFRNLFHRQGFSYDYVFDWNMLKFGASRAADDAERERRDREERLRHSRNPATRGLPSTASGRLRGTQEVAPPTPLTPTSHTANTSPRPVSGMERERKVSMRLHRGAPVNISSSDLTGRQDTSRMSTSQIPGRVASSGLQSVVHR
EXPERIMENT SUMMARY: DSF 100 kinase selectivity screen;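 also: compound tested at 20 µM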
Format: binding
ASSAY CONTEXT: Protein CSNK1D; average of three replicates
MEASUREMENT NAME: dTm (K)

Solved entries (count: 2):
Data request, read-out dTm, for COc1ccc(NC(=O)C2(C(=O)Nc3cccc(-c4c[nH]c5ncnc(N6CCOCC6)c45)c3)CC2)cc1 [Compound 16] 0.92

Data request, read-out dTm, for O=C(Nc1cccc(-c2c[nH]c3ncnc(N4CCOCC4)c23)c1)C1(C(=O)Nc2ccc(F)cc2F)CC1 [Compound 23] 1.02

a. O=C(Nc1cccc(-c2c[nH]c3ncnc(N4CCOCC4)c23)c1)C1(C(=O)Nc2cc(Br)c(F)cc2F)CC1 [Compound 25]
b. O=C(Nc1cccc(-c2c[nH]c3ncnc(N4CCOCC4)c23)c1)C1(C(=O)Nc2ccc(F)c(F)c2)CC1 [Compound 17]
c. O=C(Nc1cccc(-c2c[nH]c3ncnc(N4CCOCC4)c23)c1)c1cccn(-c2ccc(F)cc2)c1=O [Compound 4]
Please list the entries, largest dTm first. Hello, could you send the labels back in the order asked? Thank you. c, b, a

###

ASSAY SYSTEM: ~100 representative kinases (Homo sapiens)
Construct: Recombinant protein kinase domains with a concentration of 2 μM
EXPERIMENT SUMMARY: DSF 100 kinase selectivity screen;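 also: compound tested at 20 µM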
Type: binding
ASSAY CONTEXT: Protein CAMK2D; average of three replicates
MEASUREMENT NAME: dTm (K)

Solved entries (count: 2):
Data request, read-out dTm, for Cc1ccc(NC(=O)C2(C(=O)Nc3cccc(-c4c[nH]c5ncnc(N6CCOCC6)c45)c3)CC2)cc1 0.26

Data request, read-out dTm, for Cn1cc(-c2c[nH]c3ncnc(N4CCOCC4)c23)cc1C#N 0.51

P. O=C(Nc1ccc(F)cc1)C1(C(=O)Nc2cccc(-c3c[nH]c4ncnc(N5CCOCC5)c34)c2)CC1
Q. COc1cc(NC(=O)C2(C(=O)Nc3cccc(-c4c[nH]c5ncnc(N6CCOCC6)c45)c3)CC2)ccc1F
For P and Q , which recorded dTm is lower? Mark your selection by writing its label. Q
(Q: -0.00539 K, P: 0.07 K)

###

ASSAY SYSTEM: ~100 representative kinases (Homo sapiens)
Construct: Recombinant protein kinase domains with a concentration of 2 μM
EXPERIMENT SUMMARY: DSF 100 kinase selectivity screen;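 also: compound tested at 20 µM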
Assay type: binding
ASSAY CONTEXT: Protein RPS6KA5; DSF; average of three replicates
MEASUREMENT NAME: dTm (K)

Solved entries (count: 4):
Data request, read-out dTm, for O=C(Nc1ccc(F)cc1)C1(C(=O)Nc2cccc(-c3c[nH]c4ncnc(N5CCOCC5)c34)c2)CC1 4.64

Data request, read-out dTm, for CN[C@@H]1C[C@H]2O[C@@](C)([C@@H]1OC)n1c3ccccc3c3c4c(c5c6ccccc6n2c5c31)C(=O)NC4 13.79

Data request, read-out dTm, for Cc1ccc(C(=O)Nc2ccc(CN3CCN(C)CC3)c(C(F)(F)F)c2)cc1C#Cc1c[nH]c2ncnc(N3CCOCC3)c12 1.58

Data request, read-out dTm, for O=C(Nc1ccc(Cl)cc1)C1(C(=O)Nc2cccc(-c3c[nH]c4ncnc(N5CCOCC5)c34)c2)CC1 5.83

a. Cc1ccc(NC(=O)C2(C(=O)Nc3cccc(-c4c[nH]c5ncnc(N6CCOCC6)c45)c3)CC2)cc1
b. Cc1cc(F)ccc1NC(=O)C1(C(=O)Nc2cccc(-c3c[nH]c4ncnc(N5CCOCC5)c34)c2)CC1
c. O=C(Nc1cc(F)cc(Br)c1)C1(C(=O)Nc2cccc(-c3c[nH]c4ncnc(N5CCOCC5)c34)c2)CC1
d. O=C(Nc1cccc(-c2c[nH]c3ncnc(N4CCOCC4)c23)c1)C1(C(=O)Nc2ccc(F)c(F)c2)CC1
Reorder the items by dTm, least to greatest. Hello, could you send the labels back in the order asked? Thank you. b, c, a, d
(b: -1.10 K, c: 0.67 K, a: 3.04 K, d: 6.14 K)

A. O=C(Nc1cccc(-c2c[nH]c3ncnc(N4CCOCC4)c23)c1)C1(C(=O)Nc2ccc(F)c(Br)c2F)CC1
B. Cc1cc(NC(=O)C2(C(=O)Nc3cccc(-c4c[nH]c5ncnc(N6CCOCC6)c45)c3)CC2)ccc1F
Which of the two items, A and B , has the greater recorded dTm? Mark your selection by writing its label. B
(B: 7.70 K, A: -0.55 K)

1. CC(C)(C)c1cccc(NC(=O)C2(C(=O)Nc3cccc(-c4c[nH]c5ncnc(N6CCOCC6)c45)c3)CC2)c1
2. Cc1ccc(-n2nc(C(C)(C)C)cc2NC(=O)Nc2cccc(-c3c[nH]c4nc(Cl)nc(N5CCOCC5)c34)c2)cc1
Which of the two items, 1 and 2 , has the greater recorded dTm? Mark your selection by writing its label. 2
(2: 7.61 K, 1: 1.50 K)

###

ASSAY SYSTEM: ~100 representative kinases (Homo sapiens)
Construct: Recombinant protein kinase domains with a concentration of 2 μM
EXPERIMENT SUMMARY: DSF 100 kinase selectivity screen;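 also: compound tested at 20 µM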
Format: binding
ASSAY CONTEXT: protein OSR1; average of three replicates
MEASUREMENT NAME: dTm (K)

Data request, read-out dTm, for CNC(=O)c1cc(Oc2ccc(NC(=O)Nc3cc(C(C)(C)C)nn3-c3ccc4ncccc4c3)c(F)c2)ccn1 [Rebastinib, reference compound] 1.75

a. CC(C)(C)c1cc(NC(=O)Nc2cccc(-c3c[nH]c4ncnc(N5CCOCC5)c34)c2)n(-c2ccc3ncccc3c2)n1
b. O=C(Nc1cccc(-c2c[nH]c3ncnc(N4CCOCC4)c23)c1)C1(C(=O)Nc2ccc(F)c(Br)c2F)CC1
For a and b , which recorded dTm is lower? Mark your selection by writing its label. b
(b: -0.0329 K, a: 4.85 K)

###

ASSAY SYSTEM: ~100 representative kinases (Homo sapiens, UniProt Q13557)
Construct: Recombinant protein kinase domains with a concentration of 2 μM
Sequence (Q13557 whole entry, the tested form may be a part): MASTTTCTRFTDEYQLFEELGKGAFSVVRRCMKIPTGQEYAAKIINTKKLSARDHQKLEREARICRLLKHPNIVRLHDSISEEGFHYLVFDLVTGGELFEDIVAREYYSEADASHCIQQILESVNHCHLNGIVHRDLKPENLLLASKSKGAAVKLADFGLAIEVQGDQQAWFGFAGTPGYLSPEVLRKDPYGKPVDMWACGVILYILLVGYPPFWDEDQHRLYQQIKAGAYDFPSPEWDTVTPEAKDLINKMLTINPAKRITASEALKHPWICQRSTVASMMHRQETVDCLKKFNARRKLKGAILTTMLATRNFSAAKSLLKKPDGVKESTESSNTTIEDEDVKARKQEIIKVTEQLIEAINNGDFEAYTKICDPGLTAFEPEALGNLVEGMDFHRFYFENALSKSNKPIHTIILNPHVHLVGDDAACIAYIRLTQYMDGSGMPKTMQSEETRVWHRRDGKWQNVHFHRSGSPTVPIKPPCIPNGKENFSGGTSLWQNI
EXPERIMENT SUMMARY: DSF 100 kinase selectivity screen;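 also: compound tested at 20 µM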
Format: binding
ASSAY CONTEXT: Protein CAMK2D; average of three replicates
Protocol: Recombinant protein kinase domains with a concentration of 2 μM were mixed with a 20 μM compound solution in dimethyl sulfoxide (DMSO), 20 mM Hepes (pH 7.5), and 500 mM NaCl. SYPRO Orange (5000×, Invitrogen) was added as a fluorescence probe (1μl/ml). Subsequently, temperature-dependent protein unfolding profiles were measured using the QuantStudio 5 realtime PCR machine (Thermo Fisher Scientific, Waltham, MA, USA). […] The temperature was raised with a step rate of 3°C/min. […]
MEASUREMENT NAME: dTm (K)

Solved entries (count: 5):
State its dTm on ~100 representative kinases (Homo sapiens, UniProt Q13557): CC(=O)N1CCN(c2nc(Cl)nc3[nH]cc(-c4cccc(NC(=O)Nc5cc(C(C)(C)C)nn5-c5ccc(C)cc5)c4)c23)CC1 -0.29

State its dTm on ~100 representative kinases (Homo sapiens, UniProt Q13557): CNC(=O)c1cc(Oc2ccc(NC(=O)Nc3cc(C(C)(C)C)nn3-c3ccc4ncccc4c3)c(F)c2)ccn1 [Rebastinib, reference compound] 2.16

State its dTm on ~100 representative kinases (Homo sapiens, UniProt Q13557): CCSc1nc(NC)c2c(-c3cccc(NC(=O)Nc4cc(C(C)(C)C)nn4-c4ccc(C)cc4)c3)c[nH]c2n1 0.32

State its dTm on ~100 representative kinases (Homo sapiens, UniProt Q13557): Cc1ccc(-n2nc(C(C)(C)C)cc2NC(=O)Nc2cccc(-c3c[nH]c4nc(Cl)nc(N5CCOCC5)c34)c2)cc1 -0.81

State its dTm on ~100 representative kinases (Homo sapiens, UniProt Q13557): O=C(Nc1cccc(-c2c[nH]c3ncnc(N4CCOCC4)c23)c1)C1(C(=O)Nc2ccc(F)c(F)c2)CC1 0.36

P. Cc1ccc(C(=O)Nc2ccc(CN3CCN(C)CC3)c(C(F)(F)F)c2)cc1C#Cc1c[nH]c2ncnc(N3CCOCC3)c12
Q. O=C(Nc1cccc(-c2c[nH]c3ncnc(N4CCOCC4)c23)c1)C1(C(=O)Nc2ccc(F)c(Br)c2F)CC1
Which of the two items, P and Q , has the greater recorded dTm? Mark your selection by writing its label. Q
